Can you tell me IC50 for the items I'm about to list?
protocolText: Antiproliferative activity against human CRL2813 cells after 5 days by SRB assay
Assay type: functional, cell-based
conditionsUsed: CRL2813, 120 h
In your response, the unit should come after the numeric value.

IN: Endpoint output: IC50 of Cc1ccc(NC(=O)Nc2ccc(Cl)c(Cl)c2)cc1OCCN1CCNCC1 . Value?
OUT: 5200 nM

IN: Okay, and Cc1ccc(NC(=O)Nc2cc(C(F)(F)F)cc(C(F)(F)F)c2)cc1OCCN(C)C ?
OUT: 7600 nM

IN: Okay, and Cc1ccc(NC(=O)Nc2ccc(Cl)c(Cl)c2)cc1O ?
OUT: 2300 nM

IN: Okay, and O=C(Nc1cc(C(F)(F)F)cc(C(F)(F)F)c1)Nc1cc(C(F)(F)F)cc(C(F)(F)F)c1 ?
OUT: 300 nM

IN: Okay, and O=C(Nc1ccc(Cl)c(Cl)c1)Nc1ncccc1O ?
OUT: 1600 nM

---

Can you tell me IC50 for the items I'm about to list?
protocolText: Antiproliferative activity against human CRL2813 cells after 5 days by SRB assay
Assay type: functional, cell-based
conditionsUsed: CRL2813, 120 h
Please give a number only; it is taken to be in nM.

IN: Endpoint output: IC50 of O=C(Nc1ccc(Cl)c(Cl)c1)Nc1ccc(Cl)c(Cl)c1 . Value?
OUT: 1000

IN: Okay, and COc1cc(NC(=O)Nc2ccc(Cl)c(C(F)(F)F)c2)ccc1C ?
OUT: 2800

IN: Okay, and Cc1ccc(NC(=O)Nc2ccc(Cl)c(C(F)(F)F)c2)cc1OCCN1CCNCC1 ?
OUT: 2500

IN: Okay, and Cc1ccc(NC(=O)Nc2ccc(Cl)c(Cl)c2)cc1OCCN1CCOCC1 ?
OUT: 12000

IN: Okay, and Cc1ccc(NC(=O)Nc2cc(C(F)(F)F)cc(C(F)(F)F)c2)cc1OCCN1CCOCC1 ?
OUT: 800

IN: Okay, and Cc1ccc(NC(=O)Nc2ccc(Cl)c(C(F)(F)F)c2)cc1OCCN1CCOCC1 ?
OUT: 1100

---

assayedSystem: Eukaryotic translation initiation factor 2-alpha kinase 1 (Mus musculus)
protocolText: Activation of EIF2alpha kinase in mouse KLN205 cells assessed as CHOP protein expression at 20 uM after […] by Western blot analysis
Type: cell-based
Active and inactive are the calls of the source. The calls are words filed in the database; no cut-off is given here.
Outcome field: choose from active, inactive

IN: Give the logged outcome of this assay for the following molecule: O=C(Nc1ccc(Cl)c(C(F)(F)F)c1)Nc1ncccc1O
OUT: active

IN: Okay, and O=C(Nc1cc(C(F)(F)F)cc(C(F)(F)F)c1)Nc1cc(C(F)(F)F)cc(C(F)(F)F)c1 ?
OUT: active

IN: Okay, and COc1cc(NC(=O)Nc2cc(C(F)(F)F)cc(C(F)(F)F)c2)ccc1C ?
OUT: active

IN: Okay, and COc1cc(NC(=O)Nc2ccc(Cl)c(Cl)c2)ccc1C ?
OUT: inactive

---

protocolText: Antiproliferative activity against human CRL2813 cells after 5 days by SRB assay
Format: functional, cell-based
conditionsUsed: CRL2813, 120 h
Can you tell me IC50 for the items I'm about to list?
Please give a number only; it is taken to be in nM.

IN: Endpoint output: IC50 of O=C(Nc1cc(C(F)(F)F)cc(C(F)(F)F)c1)Nc1ncccc1O . Value?
OUT: 600

IN: Okay, and Cc1ccc(NC(=O)Nc2cc(C(F)(F)F)cc(C(F)(F)F)c2)cc1O ?
OUT: 1200

IN: Okay, and COc1cc(NC(=O)Nc2cc(C(F)(F)F)cc(C(F)(F)F)c2)ccc1C ?
OUT: 500
